tested on: SK-MEL-5 melanoma; assay: NCI-60 one-dose screen, 48 h (100 = growth as untreated, 0 = no growth, -100 = all killed); settings: 10 µM unless noted
Compounds without any hit were thinned out: in the full panel of roughly 83,000, 20% have a hit.
assay readout: growth (%)
Hi! Could you send only the number? It should be in %, unit omitted.

Observe how each entry below is paired with its result.
COc1ccc(OC)c(NC2=C(Cl)C(=O)C(C)=C(C)C2=O)c1 = 89.6
CCNCc1c(-c2cccc(OC(F)(F)F)c2)[nH]c2ccc(N3CCCC3)cc2c1=O = 15.5
CC(C)(C)OC(=O)N1CCN(S(=O)(=O)/N=C2\NC(=O)NC2=C(Cl)Cl)CC1 = 95.9
COc1ccccc1/C=C/C(=O)c1nnn(-c2ccc(C(=O)O)cc2)c1C = 95.7
O=C(Cn1cc(CN2C(=O)c3ccc([N+](=O)[O-])cc3C2=O)nn1)Nc1ccc(F)cc1Cl = 101

// query Which growth is reported for this compound? C#C[C@]1(O)CC[C@H]2[C@@H]3CC=C4c5sc(Nc6cccc(C)n6)nc5CC[C@]4(C)[C@H]3CC[C@@]21C
// result 3.52

// query Which growth is reported for this compound? O=[N+]([O-])c1ccc(-c2nnc(SCc3ccc(O)c4ncccc34)o2)cc1
// result -6.14

// query Which growth is reported for this compound? CN(C)c1ccc(/C=N/Nc2nc(N/N=C/c3ccc(N(C)C)cc3)nc(N3CCOCC3)n2)cc1
// result 100

// query Which growth is reported for this compound? Cc1ccccc1/C=C/c1nn2c(-c3ccoc3C)nnc2s1
// result 98.4

// query Which growth is reported for this compound? COc1cc(/C=N/Nc2ccnc3cc(Cl)ccc23)cc(OC)c1O
// result -92.7
